measuredTarget: T1, human GREM1 (hGREM1-His; SEQ ID NO: 595) (human, UniProt O60565 25-184)
T1 construct: also called biotin-hGREM1-His; recombinant human GREM1 protein
T1 sequence: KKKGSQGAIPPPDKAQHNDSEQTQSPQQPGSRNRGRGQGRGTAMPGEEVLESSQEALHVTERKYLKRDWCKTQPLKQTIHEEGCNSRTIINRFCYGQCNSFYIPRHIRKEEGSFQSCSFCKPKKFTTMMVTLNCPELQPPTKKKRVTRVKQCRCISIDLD
assayComment: SPR, Biacore T200, 37 C, mAb captured, hGREM1-His injected;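 further: HBS-EP running buffer containing heparin, association and dissociation phases tracked, KD computed as koff over kon and half-life derived from koff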
So basically, if koff comes in under 0.0008 s⁻¹ it's yes, and if it's 0.0008 s⁻¹ or more it's no.

Quick check: koff of H4H6246P (antibody, human IgG4, V domains shown, H4H prefix = human IgG4 Fc) VH: QVQLVESGGGVVQPGRSLRLSCAASGFTFSSYGMHWVRQAPGKGLEWVAIIWYDGSNRYYADSVKGRFTISRDNSRNTLYLQMNSLRAEDTAVYYCARDEYGDYDYPFDYWGQGTLVTVSS VL: DIQMTQSPSSLSASVGDRVTITCRASQGIRNDLGWFQQKPGKAPKRLIYAASSLQSGVPSRFSGSGSGTEFTLTISSLQPEDFATYYCLQHNTYPPFTFGPGTKVDIK under 0.0008 s⁻¹?
yes

Quick check: koff of H4H6248P (antibody, human IgG4, V domains shown, H4H prefix = human IgG4 Fc) VH: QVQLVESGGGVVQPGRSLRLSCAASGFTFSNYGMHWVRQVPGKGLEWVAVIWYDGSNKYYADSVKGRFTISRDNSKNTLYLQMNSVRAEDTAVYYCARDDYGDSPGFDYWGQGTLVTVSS VL: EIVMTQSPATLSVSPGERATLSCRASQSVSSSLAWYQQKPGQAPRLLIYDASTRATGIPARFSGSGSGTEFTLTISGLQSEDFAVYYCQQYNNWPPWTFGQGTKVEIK under 0.0008 s⁻¹?
yes

Quick check: koff of H4H6269P (antibody, human IgG4, V domains shown, H4H prefix = human IgG4 Fc) VH: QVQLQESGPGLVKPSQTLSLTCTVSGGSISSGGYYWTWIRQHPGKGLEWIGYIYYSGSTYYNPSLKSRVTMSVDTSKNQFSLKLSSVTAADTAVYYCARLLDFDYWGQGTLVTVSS VL: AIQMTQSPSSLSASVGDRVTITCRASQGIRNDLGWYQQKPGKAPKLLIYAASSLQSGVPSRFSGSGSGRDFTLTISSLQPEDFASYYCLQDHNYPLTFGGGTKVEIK under 0.0008 s⁻¹?
yes

Quick check: koff of H4H2780N (antibody, human IgG4, V domains shown, H4H prefix = human IgG4 Fc) VH: EVQLVESGGGLVKPGGSLRLSCAASGFTFSTYSMNWVRQAPGKGLEWVSSISSGSSYIYYTDSVKGRFTISRDNAKNSLYLQMNSLRAEDTAVYYCARFGSYYYFGFDVWGQGTTVTVSS VL: DIQMTQSPSSLSASVGDRVTITCRASQGISNYLAWYQQKPGKVPKLLIFSASTLQSGVPSRFSGSGSGPDFTLTVSSLQPEDVATYYCQKYNSAPFAFGPGTKVDIK under 0.0008 s⁻¹?
no

Quick check: koff of H4H2783N2 (antibody, human IgG4, V domains shown, H4H prefix = human IgG4 Fc) VH: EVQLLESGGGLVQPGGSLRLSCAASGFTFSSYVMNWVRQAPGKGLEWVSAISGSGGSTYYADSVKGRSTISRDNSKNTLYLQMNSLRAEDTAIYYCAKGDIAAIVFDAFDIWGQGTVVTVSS VL: DIQMTQSPSSLSASVGDRVTITCQASQDISSALNWYQHKPGKAPKLLIYDASYLETGVPSRFSGSGSGTDFTFTISSLQPEDIATYYCQQYDNLPYTFGQGTKLEIK under 0.0008 s⁻¹?
no
